# Tested on: HOP-62 NSCLC
# assayExplanation: NCI-60 one-dose screen, 48 h
# conditionsUsed: 10 µM unless noted
About 83,000 compounds went through this panel and 20% of them were active in at least one assay; those are over-represented in the sample as a whole. Activity calls are given as the source filed them. Rule for the calls: active = growth percent below 10; inactive = the rest.
Just give me one of these, please: class 1 = active, class 0 = inactive

Take a look at these entries with their results.
1. Fc1ccc(NCc2nnc(-c3ccc(Cl)cc3)o2)cc1	class 0
2. C=C(C)[C@@H]1CC[C@]2(/C=N/Nc3ccncc3)CC[C@]3(C)[C@H](CC[C@@H]4[C@@]5(C)CCCNC(C)(C)[C@@H]5CC[C@]43C)[C@@H]12	class 0
3. COCCNC1=C(Cl)C(=O)c2ccccc2C1=O	class 0
4. Cc1oc(-c2ccccc2Cl)cc1C(=O)Nc1ccc(S(N)(=O)=O)cc1	class 0
5. Nc1nc2c3ccncc3cc(-c3cccc(Cl)c3)c2c2cnccc12	class 0
6. COc1cccc(-c2nn(-c3ccccc3)cc2-c2ccnc(NCCCN)c2)c1	class 0
7. Brc1ccc2[nH]cc(-c3nc(-c4c[nH]c5ncccc45)cs3)c2c1	class 0
8. CC(C)=CCC/C(C)=C/CC/C(C)=C/CSC[C@H](NC(=O)CCCCCN1CCN(C)CC1)C(=O)NC1CCCCCC1	class 0
9. COc1ccc(-c2cc(/C=C/C(=O)c3ccc(OC)c(OC)c3)[nH]n2)cc1	class 1

Field: next compound
Could you please tell me the result logged for Cc1cc(N2CCN(C)CC2)nc(N(CCNc2ccnc3cc(Cl)ccc23)Cc2ccco2)n1 in this assay? class 0

====

# Test system: NCI-H322M lung
# assayExplanation: NCI-60 one-dose screen, 48 h
# conditionsUsed: 10 µM unless noted
This is part of a sample that, as a whole, favours compounds with a hit. Of some 83,000 tested, about 20% had one in any assay. Calls of active or inactive are those of the source. How the source made its calls: active means growth percent below 10; inactive means the rest.
Outcome (select one): TRUE = active, FALSE = inactive

Please share the test call associated with COc1cc2c(cc1-c1c(C)noc1C)ncc1nc(C3CCC(F)(F)CC3)n([C@@H](C)COC(F)F)c12 . FALSE

Recorded call for CCN(CC)CCCCCNc1cc(OC(=O)c2ccccc2)cc2cccnc12 ? FALSE

Hey, what did the test say about O=S(=O)(NCCNc1cc(-c2cn(-c3ccccc3)nc2-c2cccc(O)c2)ccn1)c1cccc(F)c1 ? FALSE

Give the logged outcome of this assay for the following molecule: Fc1ccc(Nc2ccc3c(OCCCN4CCOCC4)cccc3n2)cc1F FALSE

Could you please tell me the result logged for OCC(CO)(CCl)CCl in this assay? FALSE

// param item: NC(N)=N/N=C/c1ccc(-c2ccc(-c3ccc(Cl)cn3)s2)cc1 ; yields the recorded call FALSE

Write down the call the test reported for this molecule. Item: Cn1cc(-c2csc(-c3cn(CCN)c4ccc(F)cc34)n2)c2cccnc21 FALSE

====

# Tested on: 786-0 renal
# assayExplanation: NCI-60 one-dose screen, 48 h
# conditionsUsed: 10 µM unless noted
About 83,000 compounds went through this panel and 20% of them were active in at least one assay; those are over-represented in the sample as a whole. Active and inactive are the calls of the source. The calls were made as follows: active = growth percent below 10; inactive = the rest.
Field 'call' accepts 1 = active, 0 = inactive

These recorded examples may help you get a feel for the data.
1. Fc1cccc(-c2[nH]nc3nc(Nc4cccnc4)sc23)c1	0
2. NNC(=O)c1nc2ccccc2[nH]1	0
3. CC(=O)OC[C@]12CC[C@@H](/C(C)=N/O)[C@@H]1[C@H]1CC[C@@H]3[C@@]4(C)CCCNC(C)(C)[C@@H]4CC[C@@]3(C)[C@]1(C)CC2	0
4. O=C(/C=C\c1ccc2c(c1)OCO2)/C=C/c1ccc2c(c1)OCO2	0
5. CC1(C)CC[C@]2(C(=O)Nc3ccccn3)CC[C@]3(C)C(=CC[C@@H]4[C@@]5(C)C/C(=C/c6ccncc6)C(=O)C(C)(C)[C@@H]5CC[C@]43C)[C@@H]2C1	0

Record lookup: outcome of this test for O=S(=O)(NCCNc1cc(-c2cn(-c3ccccc3)nc2-c2cccc(O)c2)ccn1)c1cccc(F)c1 ? 0

Could you please tell me the result logged for CCCCC[C@H]1CC=C2C(=O)C=C[C@@H]2CC=CCCCC(=O)O[C@@H](CCCCC)CC=C2C(=O)C=C[C@@H]2CC=CCCCC(=O)O[C@@H](CCCCC)CC=C2C(=O)C=C[C@@H]2CC=CCCCC(=O)O1 in this assay? 1

====

# Tested on: EKVX NSCLC
# assayExplanation: NCI-60 one-dose screen, 48 h (100 = growth as untreated, 0 = no growth, -100 = all killed)
# conditionsUsed: 10 µM unless noted
The panel holds about 83,000 compounds, 20% with a hit somewhere; the sample as a whole holds those more often.
measurementName: growth (%)
Lab book: enter the figure in %, no units written.

Solved cases (2 shown):
1) COc1cc2nc(Cl)nc(Nc3cccc(C(=O)/C=C/c4ccc(Cl)cc4)c3)c2cc1OC	71.7
2) COc1cc2ncnc(Nc3ccc(Oc4ccnc(C)c4)c(C)c3)c2cc1NC(=O)CC1CCSS1 (stereo not drawn)	-1.66

Record request: growth value, item O=S(=O)(NCCNc1cc(-c2cn(-c3ccccc3)nc2-c2cccc(O)c2)ccn1)c1ccc(Cl)cc1 52.1

Any idea what growth was measured for COc1cc(/C=C/c2cc(/C=C/c3ccc(O)c(OC)c3)n(-c3ccccc3)c(=O)n2)ccc1O ? 71.4

====

# System: SR leukemia
# assayExplanation: NCI-60 one-dose screen, 48 h
# conditionsUsed: 10 µM unless noted
This is part of a sample that, as a whole, favours compounds with a hit. Of some 83,000 tested, about 20% had one in any assay. The source made the active and inactive calls. How the source made its calls: active means growth percent below 10; inactive means the rest.
API: response.call in Yes = active, No = inactive

Reference set, count: 6
1) Cn1c(/C(C#N)=C/c2ccc3ccccc3c2)cc2ccccc21	No
2) OCC(CO)(CCl)CCl	No
3) Cc1ccc(NC2CC(=O)N(c3c(C)cc(C)cc3C)C2=O)c(C)c1 (centres undefined)	No
4) C[Si](C)(C)Cc1ccccc1	No
5) O=S(=O)(NCCNc1cc(-c2cn(-c3ccccc3)nc2-c2cccc(O)c2)ccn1)c1cccc(F)c1	No
6) C[C@@H](Oc1ccc(C(=O)NS(=O)(=O)C(C)(C)C)cc1C(F)(F)F)c1ccc(Oc2ccccc2)cn1	No

Entry CN1CCN(c2ccc3nc(-c4[nH]ncc4Nc4ncnc5[nH]ccc45)[nH]c3c2)CC1 : call = ? Yes

Query: recorded result category for C#CCC(C)(O)/C=C/C1=C(C)CCCC1(C)C (centres undefined) in this test No

In this assay, the call recorded for N#CC1=C(N)Oc2c(sc3c(F)cccc23)C1c1ccc(Cl)cc1 (centres undefined) was what? No

Each molecule tested received a call. Report the one for COc1ccc(-c2cc(/C=C/C(=O)c3ccc(OC)c(OC)c3)[nH]n2)cc1 . Yes

Which result was noted for this molecule in the test: Cc1nn(-c2ccc(Br)cc2)c2nc3[nH]c(=O)[nH]c(=O)c3nc12 No

Identify the outcome logged in this assay for the molecule shown: COc1ccc(NC(=O)c2ccc3c(c2)nc(-c2cc4ccccc4[nH]c2=O)n3-c2cc(C(C)(C)C)[nH]n2)cc1 No

# outcome recorded in this test, key = N#Cc1cnc2cc(OC[C@@H](O)CO)c(NC(=O)CC3CSSC3)cc2c1Nc1ccc(OCc2cccc(F)c2)c(Cl)c1 Yes

Kindly provide the recorded test outcome for the following molecule: O=C(CI)Nc1ccc(O)c2ccccc12 Yes

====

# Tested on: NCI-H322M lung
# assayExplanation: NCI-60 one-dose screen, 48 h (100 = growth as untreated, 0 = no growth, -100 = all killed)
# conditionsUsed: 10 µM unless noted
This is part of a sample that, as a whole, favours compounds with a hit. Of some 83,000 tested, about 20% had one in any assay.
measurementName: growth (%)
Please respond with the number in % and leave the unit unwritten.

Which growth reading was recorded for the molecule COc1cccc(-c2nn(-c3ccccc3)cc2-c2ccnc(NCCCNS(=O)(=O)c3ccc(Br)cc3)c2)c1 ? 74.4

Field request: growth | item: CN1CCN(c2ccc3nc(-c4[nH]ncc4Nc4ncnc5c4OCCCN5)[nH]c3c2)CC1 -67.3

Suppose we examine the molecule CCN(CC)c1ccc(/C=C/c2cc(C)c3ccccc3n2)cc1 ; what growth value has been reported? 101

What value of measured growth is listed for O=C(N/N=C/c1ccccc1SSc1ccccc1/C=N/NC(=O)c1ccccc1)c1ccccc1 ? 46.5

Recorded growth for O=C1c2cc3c(cc2-c2c1c1ccc(Cl)cc1c(=O)n2C[C@H](O)[C@@H](O)[C@H](O)CO)OCO3 , please? 12.6

====

# Tested on: NCI-H226 lung
# assayExplanation: NCI-60 one-dose screen, 48 h
# conditionsUsed: 10 µM unless noted
About 83,000 compounds went through this panel and 20% of them were active in at least one assay; those are over-represented in the sample as a whole. The source made the active and inactive calls. The calls were made as follows: active = growth percent below 10; inactive = the rest.
Output constraint: value belongs to t (active), f (inactive)

Illustrative cases are given below, each with its answer.
1) Nc1nc2c3ccncc3cc(-c3cccc(Cl)c3)c2c2cnccc12	f
2) CC(=O)O[C@H]1CC[C@@]2(C)[C@@H](CC[C@@H]3[C@@H]2CC(=O)[C@@]2(C)[C@H]3C[C@@H](C3CCCC3=O)[C@@H]2C(C)=O)C1 (some centres not stated)	f
3) COc1ccc(-c2cc(=O)oc3ccc(Cl)cc23)cc1F	f

Please let me know the test result on file for COc1cc2[nH]c(C(=O)c3cc(OC)c(OC)c(OC)c3)c(N)c2cc1C#CC1CC1 . f

Just curious, what result did Cc1ccc(S(=O)(=O)Nc2ccc(-c3cc(-c4cccc(F)c4)c(C#N)c(=O)[nH]3)cc2)cc1 get here? f

Any idea what this test logged for O=C1c2cccc3cccc(c23)C(=O)N1CC#Cc1ccc2c3c(cccc13)C(=O)N(CCN1CCNCC1)C2=O ? f

What was the test verdict on Nc1c2c(nc3ccc(Cl)cc13)CC(c1ccccc1)CC2=O (configuration not stated) ? f

What classification did CCN1CCN(C(=O)[C@]23CCC(C)(C)C[C@@H]2C2=CC[C@@H]4[C@@]5(C)C/C(=C/c6ccncc6)C(=O)C(C)(C)[C@@H]5CC[C@@]4(C)[C@]2(C)CC3)CC1 end up with in this test? t

Any idea what this test logged for COc1ccc2c(c1)C/C(=C\c1cc(-c3cc(OC)c(OC)c(OC)c3)n[nH]1)C2=O ? f

Returns: the outcome recorded for COC(=O)CCCCCn1c2ccccc2c2c3c(c4c5ccccc5[nH]c4c21)C(=O)N(O)C3=O in this assay. f

Please let me know the test result on file for COc1ccc2c(c1)C(Br)=C(CCO)C2c1ccccc1 (configuration not stated) . f

Outcome logged for CC1(C)NCCC[C@]2(C)[C@H]3CC[C@@H]4[C@H]5[C@H](C(=O)/C=C/c6ccccn6)CC[C@]5(CO)CC[C@@]4(C)[C@]3(C)CC[C@@H]12 in this assay: f

Returns: the outcome recorded for O=C1CCCC=CC[C@H]2C=C(Cl)C(=O)C2=CC[C@H](CCCCC(F)(F)F)OC(=O)CCCC=CC[C@H]2C=C(Cl)C(=O)C2=CC[C@H](CCCCC(F)(F)F)OC(=O)CCCC=CC[C@H]2C=C(Cl)C(=O)C2=CC[C@H](CCCCC(F)(F)F)O1 in this assay. f

Kindly provide the recorded test outcome for the following compound: CC(=O)OC(C)COc1ccc(-c2ccccc2)cc1 (configuration not stated) f

Please indicate how the test categorized CCCCC/C(=C\c1ccccc1)C1OC(C)C(C)O1 (configuration not stated) . f

Dear all, I need the recorded test outcome for O=C1CN(c2ccccc2)C(=O)C1C(=O)Nc1ccc(Cl)c(Cl)c1 (configuration not stated) , thank you. f

# lookup: test call for CC1(C)c2ccccc2C(=O)C1(Br)Cc1ccccc1 (configuration not stated) f
